I'd appreciate it if you could supply log10(IC50) values for the items below.
# Test system: HCT-116
# assay_remarks: Cytotoxicity against human HCT116 cells after 72 hrs by MTT assay
# Assay type: functional, cell-based
# applied_conditions: HCT-116, 72 h
Short version: log10 scale, IC50, µM.

Example results:
COc1ccc(-c2coc3cc(OCCc4ccccc4)ccc3c2=O)cc1N(CCCl)CCCl	0.91
COc1ccc(-c2coc3cc(OC4CCCCCC4)ccc3c2=O)cc1N(CCCl)CCCl	0.76
C=C(C)COc1ccc2c(=O)c(-c3ccc(OC)c(N(CCCl)CCCl)c3)coc2c1	1.16

// for each compound below, give its log10(IC50)
1. COc1ccc(-c2coc3cc(O)ccc3c2=O)cc1
2. COc1ccc(-c2coc3cc(OCc4ccc(C)cc4)ccc3c2=O)cc1N(CCCl)CCCl
3. CCC(C)Oc1ccc2c(=O)c(-c3ccc(OC)c(N(CCCl)CCCl)c3)coc2c1 (centres undefined)
4. CCCOc1ccc2c(=O)c(-c3ccc(OC)c(N(CCCl)CCCl)c3)coc2c1

Solution:
1.79
0.97
1.31
1.18

// for each compound below, give its log10(IC50)
1. CCCCOc1ccc2c(=O)c(-c3ccc(OC)c(N(CCCl)CCCl)c3)coc2c1
2. COc1ccc(-c2coc3cc(OCCC(C)C)ccc3c2=O)cc1N(CCCl)CCCl

Solution:
1.23
0.88
